System: human U1810 NSCLC cells
Experiment: MTT viability assay, cytotoxic activity
Format: cell-based
Details: 48 h, MTT, read-out: IC50 (concentration causing 50% inhibition of viability)
measure-name: IC50

Tell me the measured IC50 of Cc1ncc(COP(=O)(O)O)c(CN(CCN(CC(=O)O)Cc2c(COP(=O)(O)O)cnc(C)c2O)CC(=O)O)c1O.[Mn] , please.
633 µM
